List of Kd values.
biological target: T. cruzi CYP51 (Trypanosoma cruzi, UniProt Q7Z1V1); construct: had the first 21 residues upstream of K22 replaced with the fragment MAKKKKK; His6 (C); made in house; assay: Low throughput UV-vis binding assay; details: UV-vis titration, 0.5 µM CYP51, quadratic tight-binding equation; lower limit of method ~5 nM; read-out: KD
Sequence (Q7Z1V1 15-481, looked up, natural form): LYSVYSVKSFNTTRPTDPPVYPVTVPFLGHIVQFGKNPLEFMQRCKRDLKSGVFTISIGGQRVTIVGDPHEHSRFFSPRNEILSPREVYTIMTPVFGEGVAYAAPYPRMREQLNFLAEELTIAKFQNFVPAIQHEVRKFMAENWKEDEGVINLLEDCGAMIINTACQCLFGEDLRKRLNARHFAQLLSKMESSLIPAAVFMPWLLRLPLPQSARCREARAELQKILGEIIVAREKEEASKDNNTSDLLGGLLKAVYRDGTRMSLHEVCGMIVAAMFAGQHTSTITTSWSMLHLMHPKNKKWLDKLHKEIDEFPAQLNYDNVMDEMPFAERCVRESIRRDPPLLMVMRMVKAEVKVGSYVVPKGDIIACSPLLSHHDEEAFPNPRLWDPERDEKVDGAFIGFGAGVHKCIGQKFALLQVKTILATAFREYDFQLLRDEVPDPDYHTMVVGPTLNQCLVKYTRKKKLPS
Report the figure in nM without appending any unit label.

{"columns": ["compound", "Kd / nM"],
 "data": [
  ["COC(=O)C1=C(N)Oc2cc(C)n(CCc3ccc(OC)c(OC)c3)c(=O)c2C1c1cccnc1 (stereo not shown) [Compound 6]", 76]
]}

Supply Kd value. Item: Clc1ccc(OCCCCCCn2ccnc2)cc1 [Compound 11]
65

Report Kd, nothing else, for this compound: Brc1ccccc1OCCCCn1ccnc1 [Compound 1b]
66

* * *

biological target: T. cruzi CYP51 (Trypanosoma cruzi, UniProt Q7Z1V1); construct: had the first 21 residues upstream of K22 replaced with the fragment MAKKKKK; His6 (C); made in house; assay: HTS spectral-mode binding screen, type II difference spectra scored 0-5; settings: spectral mode, four serial dilutions 2 µM to 12.5 µM, 2 µM CYP51
Entries and their HTS binding score values follow.

Solved entries (count: 6):
{"columns": ["compound", "result value"],
 "data": [
  ["COc1cc(NS(=O)(=O)c2ccc(Nc3nc(-c4cccnc4)cs3)cc2)nc(OC)n1 [Compound 177]", 4],
  ["O=C(c1ccncc1)N(Cc1ccccc1)Cc1ccccc1 [Compound 61]", 4],
  ["COc1cc2c(cc1OC)C(C(=O)N1CCC(Cc3ccccc3)CC1)C(c1cccnc1)N(C)C2=O (stereo not drawn) [Compound 185]", 4],
  ["CC(C)N(CCc1ccncc1)/C(S)=N/C1CCCCC1 [Compound 64]", 5],
  ["O=C(NCCc1ccncc1)Nc1ccc(Cl)c(Cl)c1 [Compound 70]", 4],
  ["O=C(c1ccc(Cl)cc1)C(Oc1ccc(Cl)cc1)n1cncn1 (stereo not drawn) [Compound 107]", 5]
]}

Give recorded HTS binding score. CC(C)c1nnc(N2C(=O)c3oc4ccccc4c(=O)c3C2c2cccnc2)s1 (stereo not drawn) [Compound 144]
4

Please report HTS binding score for the following compound: O=C(c1ccc(Cl)cc1Cl)C(c1cccnc1)C(O)C(Cl)(Cl)Cl (stereo not drawn) [Compound 151]
5

Given Brc1ccc(-c2csc(-c3ccncc3)n2)cc1 [Compound 18] , respond with its HTS binding score.
3

* * *

tested on: T. cruzi-infected skeletal myoblasts (intracellular amastigotes); experiment: Hit cross-validation in T. cruzi-infected mammalian cells (image-based assay); format: cell-based, Trypanosoma cruzi; details: Trypanosoma cruzi, Myoblast, 72 h, read-out: EC50 against T. cruzi parasites in HTS assay used to rank order the hits
Each entry below lists one item and its recorded pEC50 value.
Expect pEC50 as a plain number equal to -log10 of the molar concentration.

{"columns": ["compound", "pEC50"],
 "data": [
  ["O=C(/C(=C/c1ccc(F)cc1)n1cncn1)c1ccc(Cl)cc1Cl", 5.11],
  ["OC(/C=C/c1cccc(C(F)(F)F)c1)(Cn1ccnc1)c1cccnc1 (centres unmarked)", 5.54],
  ["CC(C)=CCCC1=CCC2(COC(c3cccnc3)OC2)C(C)C1 (centres unmarked)", 5.19],
  ["O=C(NCCc1ccncc1)Nc1ccc(Cl)c(Cl)c1", 5.59]
]}

Let us examine a further case.
Complete the entry with pEC50 for CCCC/N=C(\S)N1CCn2cccc2C1c1cccnc1 (centres unmarked)
5.20

* * *

Test system: T. cruzi-infected skeletal myoblasts (intracellular amastigotes)
Assay: Hit cross-validation in T. cruzi-infected mammalian cells (image-based assay)
Format: cell-based, Trypanosoma cruzi
Conditions: T. cruzi-infected myoblasts, 72 h treatment; read-out: EC50 against T. cruzi parasites in HTS assay used to rank order the hits
Protocol: Bovine embryo skeletal muscle cells or mouse C2C12 myoblasts (ATCC#CRL-1772) used in the cross-validation assay, were cultivated respectively in RPMI 1640 medium supplemented with 5% horse serum and Dulbecco's Modified Eagle's Medium H-21 containing 4.5 g/l glucose (DMEM H-21) (Cell Culture Facility, UCSF), supplemented with 5% fetal bovine serum (FBS) (Sigma Chemical Co., St. Louis, MO, USA), 25 mM HEPES, 2 mM L-glutamine, 100 U/ml penicillin, 100 µg/ml streptomycin. […]
Item-by-item account of EC50
State just the number; it will be interpreted in nM.

Answered cases to consult:
{"columns": ["compound", "EC50 (nM)"],
 "data": [
  ["CC1=C(C(=O)OC2CCCC2)C(c2ccncc2)C2=C(O)CC(C)(C)CC2=N1 (stereo not drawn)", 306],
  ["CC(C)(C)/C(=C\\n1ccnc1)c1ccc(C(F)(F)F)cc1", 754],
  ["COc1ccc(S(=O)(=O)NC(C)c2ccc(-n3ccnc3)cc2)c2ccccc12 (stereo not drawn)", 484],
  ["N#CC1=C(N)OC2=C(C(=O)CC(c3ccccc3)C2)C1c1cccnc1 (stereo not drawn)", 667]
]}

Note down EC50 recorded for `Cc1ccc(OCCCCCn2ccnc2)cc1C`
548

Determine from records and report EC50 for `Cc1ccc(/C(=C\n2ccnc2)c2ccccc2)cc1`
920

* * *

target: T. cruzi CYP51 (Trypanosoma cruzi, UniProt Q7Z1V1); construct: had the first 21 residues upstream of K22 replaced with the fragment MAKKKKK; His6 (C); made in house; assay: HTS spectral-mode binding screen, type II difference spectra scored 0-5; conditions: spectral mode, four serial dilutions 2 µM to 12.5 µM, 2 µM CYP51
Everything with HTS binding score lower than 4 is Not met; everything else, including exactly 4, is Met.

Please check the record Nc1c(C(=O)NCCc2c[nH]c3ccccc23)sc2nc(-c3cccnc3)ccc12 [Compound 57] and state if its HTS binding score is at or above 4.
Not met

Is HTS binding score at least 4? Consider COc1ccc(NC(=O)C2=C(C)Nc3nc(-c4ccccc4)nn3C2c2ccncc2)cc1 (stereo not drawn) [Compound 166]
Met

Can OC(c1ccccc1)(c1ccccc1)c1c[nH]cn1 [Compound 47] be said to have HTS binding score at or above 4?
Not met

Quick check, HTS binding score >= 4? CN1C(=O)c2[nH]nc(-c3ccc(F)cc3)c2C1c1cccnc1 (stereo not drawn) [Compound 67]
Met

API: above_or_equal(metric=HTS binding score, cutoff=4) for item c1ccc2c(c1)-c1ccccc1C2n1ccnc1 [Compound 36]
Not met

Is the recorded value of HTS binding score equal to or greater than 4 for this molecule? COc1cc(OC)cc(-c2cc3nc(C)c(CCC(=O)NCc4cccnc4)c(C)n3n2)c1 [Compound 171]
Met

API: above_or_equal(metric=HTS binding score, cutoff=4) for item OC(/C=C/c1cccc(C(F)(F)F)c1)(Cn1ccnc1)c1cccnc1 (stereo not drawn) [Compound 23]
Not met

* * *

target: T. cruzi CYP51 (Trypanosoma cruzi); construct: had the first 21 residues upstream of K22 replaced with the fragment MAKKKKK; His6 (C); made in house; test: HTS spectral-mode binding screen, type II difference spectra scored 0-5; details: spectral mode, four serial dilutions 2 µM to 12.5 µM, 2 µM CYP51
Classification field: Met = HTS binding score at or over 4; Not met = HTS binding score under 4.

Worked examples follow.
{"columns": ["compound", "category"],
 "data": [
  ["c1ccc(CC(NCc2ccncc2)c2ccccc2)cc1 (stereo not shown) [Compound 27]", "Met"],
  ["Cc1ccc(CNC(=O)C(=O)NCC(c2cccnc2)N2CCN(Cc3ccccc3)CC2)cc1 (stereo not shown) [Compound 14]", "Not met"],
  ["OC(/C=C/c1ccccc1)(Cn1ccnc1)c1ccncc1 (stereo not shown) [Compound 12]", "Not met"],
  ["O=C(NCc1cccnc1)c1cc2nc(-c3ccco3)cc(C(F)(F)Cl)n2n1 [Compound 143]", "Met"]
]}

Here's the next entry for you.
Decide: HTS binding score of Cc1ccc(OCC(=O)ONC(=N)c2cccnc2)c(Br)c1 [Compound 54] >= 4?
Not met

* * *

The following compounds are shown together with reported Toxicity score (highest percentage of host cell growth inhibition) values.
test system: host cell (skeletal myoblasts, bovine embryo skeletal muscle or C2C12); test: Host cell toxicity in the cross-validation assay; type: cell-based; settings: host cells in cross-validation assay, up to 10 µM

{"columns": ["compound", "result value"],
 "data": [
  ["O=C(/C=C/c1cccs1)c1ccncc1 [Compound 56]", "3 (3- 31-40%)"],
  ["CC1=Nc2ncnn2C(c2cccnc2)/C1=C(\\O)OC1CCCCC1 (centres unmarked) [Compound 55]", "1 (1-<20%)"],
  ["CCc1ccc(-c2cc3c(=O)n(CC(=O)NCc4cccnc4)nc(C)n3n2)cc1 [Compound 42]", "3 (3- 31-40%)"],
  ["COC(=O)c1ccc(-c2ccncc2)s1 [Compound 21]", "2 (2-21-30%)"],
  ["OC(/C=C/c1cccc(C(F)(F)F)c1)(Cn1ccnc1)c1cccnc1 (centres unmarked) [Compound 23]", "1 (1-<20%)"],
  ["O=P(Nc1cccnc1)(Oc1ccccc1Cl)Oc1ccccc1Cl [Compound 41]", "1 (1-<20%)"],
  ["CCOC(=O)C1=C(N)Oc2ccc3ccccc3c2C1c1cccnc1 (centres unmarked) [Compound 51]", "1 (1-<20%)"],
  ["Cc1ccc(/C(=C\\n2ccnc2)c2ccccc2)cc1 [Compound 10]", "4 (4-41-50%)"],
  ["CC(C)=CCCC1=CCC2(COC(c3cccnc3)OC2)C(C)C1 (centres unmarked) [Compound 31]", "1 (1-<20%)"],
  ["Cc1ccc(OCCCCCn2ccnc2)cc1C [Compound 4]", "3 (3- 31-40%)"]
]}

Indicate the recorded Toxicity score (highest percentage of host cell growth inhibition) value for this compound: Nc1c(C(=O)NCCc2c[nH]c3ccccc23)sc2nc(-c3cccnc3)ccc12 [Compound 57]
1 (1-<20%)

Report Toxicity score (highest percentage of host cell growth inhibition) for Cc1cccc(Nc2nc(-c3ccncc3)cs2)n1 [Compound 9]
1 (1-<20%)

Return Toxicity score (highest percentage of host cell growth inhibition) for the following compound: COc1ccc(S(=O)(=O)NC(C)c2ccc(-n3ccnc3)cc2)c2ccccc12 (centres unmarked) [Compound 3]
2 (2-21-30%)

# return recorded Toxicity score (highest percentage of host cell growth inhibition) for entry Brc1ccc(OCCCn2ccnc2)cc1 [Compound 25]
2 (2-21-30%)

Fill in Toxicity score (highest percentage of host cell growth inhibition) for record Cc1ccc(CNC(=O)C(=O)NCC(c2cccnc2)N2CCN(Cc3ccccc3)CC2)cc1 (centres unmarked) [Compound 14]
4 (4-41-50%)

Fill in Toxicity score (highest percentage of host cell growth inhibition) for record COc1ccc(CNc2nc3ccccc3c3nc(-c4ccncc4)nn23)cc1 [Compound 15]
3 (3- 31-40%)
